# target_system: T1, recombinant human TL1A (human, UniProt O95150 71-251)
# T1 construct: Homotrimeric cytokine; biotinylated with Sulfo-NHS-biotin where captured for SPR, coated unlabelled in ELISA, soluble in bioassays; also called TNFSF15
# T1 chain: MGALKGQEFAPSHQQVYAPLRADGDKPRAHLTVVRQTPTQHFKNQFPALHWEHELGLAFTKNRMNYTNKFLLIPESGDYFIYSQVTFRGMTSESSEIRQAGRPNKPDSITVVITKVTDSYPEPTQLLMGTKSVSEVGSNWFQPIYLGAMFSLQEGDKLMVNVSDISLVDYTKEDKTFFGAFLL
# protocol_details: competition ELISA, coated TL1A, competitor bio-TL1A-0002
measured_quantity: Bioactivity relative to TL1A-0002 (fold)
Provide only the numeric value, understood in fold.

GET /value?item= TL1A-0266 (antibody, human IgG1, kappa, V domains shown, human IgG1 effector-function-minimized/kappa) VH: QVQLVQSGAEVKKPGASVKVSCKASGYDYTYYGISWVRQAPGQGLEWMGWISTYNTNTHYAPSLQGRVTMTTDTSTSTAYMELRSLRSDDTAVYYCARESYYGSGAFRGGMDVWGQGTTVTVSS VL: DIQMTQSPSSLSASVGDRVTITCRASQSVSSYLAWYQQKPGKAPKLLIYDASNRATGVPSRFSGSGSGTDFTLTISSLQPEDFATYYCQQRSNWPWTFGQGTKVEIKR &field=Bioactivity relative to TL1A-0002 returns 1.3

GET /value?item= TL1A-0287 (antibody, human IgG1, kappa, V domains shown, human IgG1 effector-function-minimized/kappa) VH: QVQLVQSGAEVKKPGASVKVSCKASGYDFTYYGVSWVRQAPGQGLEWMGWISTYNDNTHYAQKLQGRVTMTTDTSTSTAYMELRSLRSDDTAVYYCARESYYGSGAHRGGMDVWGQGTTVTVSS VL: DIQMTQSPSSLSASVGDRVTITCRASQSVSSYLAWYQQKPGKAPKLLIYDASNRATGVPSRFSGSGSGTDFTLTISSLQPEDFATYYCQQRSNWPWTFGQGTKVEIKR &field=Bioactivity relative to TL1A-0002 returns 2
